- Test system: MS2 coat protein
- EXPERIMENT_SUMMARY: apparent KD of MS2 coat protein; higher = weaker reporter binding
- EXPERIMENTAL_SETUP: Eterna round: R107; input ligand: none
Mark y for reported apparent KD of MS2 coat protein of 30 nM or greater; mark n for anything smaller.

>>> label_value("CGAAUGAAGCAAGAUACCAGUGUAGAUUUAGACAUGAGGAUCACCCAUGUGAGGCAUGAGCACCCUUGGCAGCUUAAGCAGAAAA [theeternabot_sameState_MS2_Theo_B_47]")
"n"
>>> label_value("AUAUUUAACGGAAGGAGCGCGGAAUAAUAAGUGGGUAAACAUGAGGAUCACCCAUGUAAACCGCAGGUAGGUCGCCGAAUAAUAA [AstrosEXyARgB#4]")
"y"
>>> label_value("GGGCCCGGGCGCGAGCCCGGGCCCAUUGAUACCAGUGAAUGUGUGCGCCCUUGGCAGCGAAUCCUAACAUGAGGAUCACCCAUGU [5.E]")
"n"
>>> label_value("ACAUGAGGAUCACCCAUGUAUGAUGUUCCUCGAGGACCGGUACGGCCGCCACUCGAACGAGUGGCGCGCGAGUGCGCACUCGCGC [aWa]")
"n"
>>> label_value("UUGUAUAUGCGAAGGAGCGGGAAAUAUAUAUAUAUAAUCCUAACAUGAGGAUCACCCAUGUCCCAGGUAGGUCGCGCAUAUGUGG [12.G]")
"y"
>>> label_value("ACAUGAGGAUCACCCAUGUGAAGCAGGGUACGAGGACCGGUACGGCCGCCACUCGAGCAUUAUAACGAGUGAAUGGCAACGAUGU [whbob_Ex_trypto A_2s16]")
"n"
>>> label_value("CGUCGAAACUGAAGGAGCGAGAUGACAACAUUGGGUCUAACAUGAGGAUCACCCAUGUAAUCUCAGGUAGGUCGCGGUGACAACA [Exclusion Arginine B GF 17]")
"y"
>>> label_value("ACAUGAGGAUCACCCAUGUAAUAAUCAGAAGGAGCGUGGAAUAACACAGGUAGGUCGCUGAUGUUUUGUUAAAAUUAUUCGUGAA [JR_SSArginiA_Sub002]")
"n"
>>> label_value("GUAUCUAUGUGAAAUAGAUAUAUAACUGAAGGAGCGUCAUUAAGGACAGGUAGGUCGCAGAGCACCUGAGGAUCACCCAGGUAGG [Arg A SS s1]")
"n"
>>> label_value("GGCACCAGGAGAAGGAGCGUGAAGACAUGAGGAUCACCCAUGUAGAGGCCCGGACCGGGUUCGCAGGUAGGUCGCUCCUGGUGCC [#1 Same State - Arginine B Attempt #15 (HarryS)]")
"n"
>>> label_value("GAUUACAUGAGGAUCACCCAUGUAACUGAAGGAGCGGUAAUAAAGCCAGGUAGGUCGCGGAACAACAUGUGGAUCACCCAUGUAA [#13 Exclusion - Arginine A]")
"y"
>>> label_value("ACGCCCAGGUAGGCUUAGUGGGAUAUGGAAGGAGCGCCGAUGCAGGCAGGUAGGUCGCCAUAGAACAUGAGGAUCACCCAUGUAA [#05 Same State - Arginine A]")
"y"

====

- System: MS2 coat protein
- EXPERIMENT_SUMMARY: apparent KD of MS2 coat protein; higher = weaker reporter binding
- EXPERIMENTAL_SETUP: Eterna round: R107; input ligand: none
// reported apparent KD of MS2 coat protein for each item listed
MEASURED_METRIC: apparent KD of MS2 coat protein

>>> meas_value("GGCACAUGUGGAAGGAGCGUCGUACGAGCUACAUGAGGAUCACCCAUGUCGGUUAGUGUCCGACAGGUAGGUCGCCACAUUUAAC [Isiser]")
"0.374 µM"
>>> meas_value("GCGGUGGUCGGAAGGAGCGACAUGAGGAUCACCCAUGUCUCCCGUUAUGGGAGUUCCUUAGGUCAGGUAGGUCGCCGACUGCCGC [#1 Exclusion - Arginine B Attempt #21 (Inspired by Omei)]")
"0.195 µM"
>>> meas_value("ACGUAAAGCAGAAGGAGCGUCUUAAUUCUACAUGAGGAUCACCCAUGUUUACAUUGAAUAUGACAGGUAGGUCGCUGAAGUACGA [JR_SSArginiB_Sub001]")
"0.0339 µM"
>>> meas_value("UGUAUGGACUGAAGGAGCGGGAAAAUAACCUGAGGAUCACCCAGGUAAAAGGCGAAAGCCACCCAGGUAGGUCGCAGUCCAUACU")
"0.0107 µM"
>>> meas_value("GGGUACAUCGCGGCCGCCACUUUUGUAAAUACAUGAGGAUCACCCAUGUCGAUGGAGACAUCGGUGAGGACCGGGUGAUGUACCG")
"0.624 µM"
>>> meas_value("UGGAGUAUCAGACAUGAGGAUCACCCAUGUCGAGGACCGGUACGGCCGCCACUCGGCAGUUUGCGUCCUCAGGUACUCCGGGUAA [Edlatearis]")
"0.0112 µM"
>>> meas_value("UGAGAGACCAGAAGGAGCGACAUGAGGAUCACCCAUGUCUCCCGUUAUGGGAGUUCUUUAGGUCAGGUAGGUCGCUGGUCUCUCA [#1 Exclusion - Arginine B Attempt #8 (Inspired by Omei)]")
"0.132 µM"
>>> meas_value("AUACAUGAGGAUCACCCAUGUUAUAGUGAAGGAGCGACAUUUAGGUCAGGUAGGUCGCACUAUAGUAUUAUAAUUCUUAGUUCUU [JR_ExcArginiA_Sub018]")
"0.0184 µM"
>>> meas_value("AUGGUUGUCGCGGCCGCCACUGUCGGCCGCCACUAAACAUGAGGAUCACCCAUGUAGGACCGGGACAGGACCGGGUGAUAACCAC [TryBS - #DoubleAptamer 3]")
"0.0259 µM"
>>> meas_value("AAUUUCGUAGGUAAAAGUUUAGAAACUGAAGGAGCGUGGUAUUACACAGGUAGGUCGCAGAUUUUACAUGAGGAUCACCCAUGUU [JR_SSArginiA_Sub008]")
"0.0221 µM"
>>> meas_value("AGCUCGCAUCCUCAAGCGUCAAAGACGCGUCGAGGACCGGUACGGCCGCCACUCGACCUGAGGAACACCCAGGUCCUCGCGAGCA [TrypAX 7 #SwitchBubble #AlternativeMS2 #MS2Late #CuTurnoff]")
"0.0261 µM"

====

- System: K4 kissing-loop RNA reporter;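 note: bound reporter read as fluorescence of individual clusters on recovered sequencing chips by microscopy, with normalized cluster intensities fitted with a binding model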
- EXPERIMENT_SUMMARY: apparent KD of K4 kissing-loop reporter; higher = weaker reporter binding
- EXPERIMENTAL_SETUP: Eterna round: R107; input ligand: theophylline 20 uM
MEASURED_METRIC: apparent KD of K4 kissing-loop reporter (nM)

>>> meas_value("UAAUAUACGAGUGAUGUUCGUUAUUUAUCAGAGGAUAUGCUUAAAUGCAGAAGGCUGUUUUUCUAAUUGAUAUUAAAUUUUUUUA [JR_Nu_ExcFMNA_Sub028]")
89.7
>>> meas_value("CUCGAGUGAUGUUCGAUUAUGUAUACAGAUACCAGUGAAUUUUAACACCCUUGGCAGCUGGUAGAAUCAUUUUAAUUUUAACUAG [JR_SSTheophyA_Sub021]")
268
>>> meas_value("UUGGCCGGACGGGAUACCAGUCAAAUCGUGUGCUUGGGAUGUCUAAGAGCCAGUGAUGUUGGCCCUUGGCAGCCCUCCCAGCUUG [Esleaqu]")
102
>>> meas_value("AAUAAGCGCGGAAGGAGCGCCGCCAGUGAUGUUGGGAGUUAGAUACCAGUGAUGUUGGGCCGGCAGGUAGGUCGCCGCAAAGCUU [Exclusion Arginine B Gf 14]")
137
>>> meas_value("AAGUCACAGGCAGGAUAUGCUUAGUAAUAAGGCCAUAUAUACGUAUAGAGUGAUGUUUUGUACCAGGCAGAAGGGCUACAUCCGU [FMN B Excl V3 (+2GCs)]")
650
>>> meas_value("GGAUUGCCAGUGAUGUUGGCAUAAACUGAAGGAGCGCGUGAAAACGCAGGUAGGUCGCAGAACCUUGCCAACUAUAUUAUUUACC [Ex Arginine A K4 22]")
146

====

- System: MS2 coat protein
- EXPERIMENT_SUMMARY: apparent KD of MS2 coat protein, switch ON state; designed switch direction (-1 OFF switch, 1 ON switch): -1; higher = weaker reporter binding
- EXPERIMENTAL_SETUP: FMN input: 0 or 200 uM; Eterna round: R93 (includes R88 designs)
Quick reference: apparent KD of MS2 coat protein of the listed items.
MEASURED_METRIC: apparent KD of MS2 coat protein (nM)

>>> meas_value("AAAAAGUGAGGAUAUACGCGAACAAAAAAAAAAAAGAAAGCGUAGAAGGCACAUGAGGAUCACCCAUGUCCAAA [Alfred 64% 4]")
28
>>> meas_value("AAUAAGUCAGGAUAUACUAAAGAAAUGAAAAGGGAUAAAGAACAUGAGGAUCACCCAUGUAGAAGGGACAAUAA [Sakir-Har]")
93.2
>>> meas_value("CUCUUGUCAGGAUAUGAAAGAAAAGAAAAGAAAGAAAAGAAUCAGAAGGGACAUGAGGAUCACCCAUGUAAGAA [EteRNA is fun!]")
64
>>> meas_value("AAAAAGGCAGGAUAUACAAAAAAAAAAAAAAAAAAGGAGGGACAUGAGGAUCACCCAUGUAGAAGGGCCAAAAA [Kai Theodor Erikson]")
97.4
